# Protocol notes: amyloid nucleation score (Sup35N fusion, yeast selection) (log enrichment); library NNK1; higher = more nucleation; inactive = no reads after selection;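 note: zero at mode of non-aggregating sequences after 7 days selection at 30°C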
Please use met whenever amyloid nucleation score is not below -0.3, and not met whenever it is.

>>> print(df.to_string())
              substance  label_value
0  PCSKAFRAVNISEAKIDFGN      not met
1  CRAGLVMSGWCRWFAQWMDS      not met
2        FEGALRLTIRSQKD          met

Does TIALRMNRINLDFKYCFNSF have a reported amyloid nucleation score of at least -0.3? met

Textbook exercise: given the entry KGKTNGVV , state whether its amyloid nucleation score is greater than or equal to -0.3. not met

Could you tell me if the measured amyloid nucleation score of RTVTWEMQKVDWSLWSCRWL reaches -0.3 or more? met

Determine whether this substance has amyloid nucleation score no lower than -0.3: YMKLRCMK met

Record IVVFSIYYVCSDGGPRVTRR ; criterion: amyloid nucleation score no lower than -0.3. Met? met

Check this substance for amyloid nucleation score at or above -0.3: LTFNPLTGCNNSQWFDGISG not met

###

# Protocol notes: amyloid nucleation score (Sup35N fusion, yeast selection) (log enrichment); library NNK3; higher = more nucleation; inactive = no reads after selection
Outcome measure: amyloid nucleation score

Past entries and their recorded results:
>>> df
              substance           outcome_measure  readout_value
0  MQWNWEGSLYMKIMSGMCHP  amyloid nucleation score           1.02
1  MVFAMTYVLCDDMWSVIGHF  amyloid nucleation score          0.141
2  WLIFELIVSELSTRHHKALD  amyloid nucleation score       inactive
3               KNKYQLN  amyloid nucleation score       inactive

Record summary for SFCRRNISKVFYNFNNCATA : reported amyloid nucleation score = inactive

Query DSLILWHGDANCSRLGYRGH yields amyloid nucleation score of inactive

Value of amyloid nucleation score reported for the substance LMAFNPMYSSQKYGTNYSFM is inactive

Kindly note the recorded amyloid nucleation score for SFLLFYVLRYP , which is inactive

Measured amyloid nucleation score, FVGNGWSNFSL : inactive

// amyloid nucleation score lookup, substance = VPGFGVLACCGQVLLFSHLF , result: inactive

Note to self: amyloid nucleation score recorded for IGLSSHISWYE was inactive

The substance SSKYISFSTTSYCTGLYRTP showed amyloid nucleation score equal to 0.896

Consider FKVNGFSATILIFKQV . Its measured amyloid nucleation score is inactive

amyloid nucleation score in this record for GRPHEPGKFIRNSSIGSGS : -0.479

The substance listed as SQGLYVGPVAPSGTVRRVWM has a reported amyloid nucleation score of inactive

// NSLVGLVCKTGSSFTRNKVV : amyloid nucleation score value = -0.104

Looking up FYEHLVRSNFLSLRRMVRTV , I see its amyloid nucleation score listed as inactive

The reported amyloid nucleation score of the substance IDNMMYVV was inactive

###

# Protocol notes: amyloid nucleation score (Sup35N fusion, yeast selection) (log enrichment); library NNK3; higher = more nucleation; inactive = no reads after selection
Outcome measure: amyloid nucleation score

Reference set (4 entries):
>>> print(df.to_string())
              substance  readout_value
0                YDWKNL       inactive
1  RTFRSFSQVYRPILRRGHSG       inactive
2  IVSKMAVYMAGTSALVLPLL         -0.086
3  LHIVNCCQPKHTRFVFQWYW           1.89

Value of amyloid nucleation score reported for the substance GMHCFIEPLSRVFGSNCGNY is inactive

Measured amyloid nucleation score, MSKYVGRIGCLWGNSASRAR : inactive

According to the records, this substance RRHKLW displays amyloid nucleation score of inactive

Per the record, RISVAGLCASEAVAKCLRRG has amyloid nucleation score of inactive

The substance WLMIMDFKCLSPRTRSWRRM showed amyloid nucleation score equal to inactive

For STVEENIY the substance record lists amyloid nucleation score as inactive

// field: amyloid nucleation score; key: IKIHYF ; value = inactive

###

# Protocol notes: amyloid nucleation score (Sup35N fusion, yeast selection) (log enrichment); library NNK2; higher = more nucleation; inactive = no reads after selection
# cutoff -0.05 applies to amyloid nucleation score; >= gives 1 (yes), < gives 0 (no)

Solved cases below.
              substance  label_value
0  GLLVELWSLLIIRYNLSAYL       0 (no)
1  SWELFSGAWTLGNRYPFRHK       0 (no)

Could you tell me if the measured amyloid nucleation score of TGCDVLRIVTRMMGKNKRYF reaches -0.05 or more? 1 (yes)

Given the entry IIWYTTFVDLLTIIDDGRLW , answer whether its amyloid nucleation score meets or surpasses -0.05. 1 (yes)

Has DTCYVTTYVWWKTLCPVGLV a recorded amyloid nucleation score greater than or equal to -0.05? 1 (yes)

###

# Protocol notes: amyloid nucleation score (Sup35N fusion, yeast selection) (log enrichment); library NNK2; higher = more nucleation; inactive = no reads after selection
Kindly return Met if reported amyloid nucleation score is no lower than 0.2; return Not met if it is lower.

// known answers, use as guide
In [3]: df
Out[3]:
   macromolecule_sequence  label_value
0    FFYRVPDITSDAGITQLLAQ          Met
1                TRFLPDAY      Not met
2    IQLIRHCSSLNRTYQVSVSR          Met
3        DLYWSMLLYVMSRVYE          Met
4    NFNCAPFLVLYQQVGQAFSL          Met
5    FCAQITPHRISWLWWQINRQ      Not met
6    YVLRYYALVLYFLICWYYAY          Met

Now examine the next entry.
Threshold query (amyloid nucleation score >= 0.2) on ALGVGVDFVKVWRNRGLAGG Met

###

# Protocol notes: amyloid nucleation score (Sup35N fusion, yeast selection) (log enrichment); library NNK1; higher = more nucleation; inactive = no reads after selection
Outcome measure: amyloid nucleation score

Record excerpt, results attached:
>>> df
              substance           outcome_measure  readout_value
0           IGKSCFIFVTG  amyloid nucleation score           0.56
1             NLTWAGTLY  amyloid nucleation score         -0.875
2  MHLCINWSLSCRAADQFMRR  amyloid nucleation score           3.53
3  AMWYTRRMQVENVKTVLSLM  amyloid nucleation score         -0.027
4           TSFYTGFWCPA  amyloid nucleation score         -0.232

For record IQSLVFRGKRVTHTKQSLTL the listed amyloid nucleation score is 0.262

response.value for YRTSWEAVQGWSFS (field: amyloid nucleation score) = -1.64

Field amyloid nucleation score (entry YGPGWTRWLENLSLYSMYEP ) reads -0.102

###

# Protocol notes: amyloid nucleation score (Sup35N fusion, yeast selection) (log enrichment); library NNK2; higher = more nucleation; inactive = no reads after selection
Tag: YES if measured amyloid nucleation score is not below 3, NO if it is.

Illustrative cases are given below, each with its answer.
              substance  label_value
0  CGTGARVCYCYGFKLSSARG           NO
1         ALTPGYPSGARVP           NO
2                DTQGIR           NO
3  CYNVGEGIVARIRGGSKGLK           NO
4       CRRRSPTNGGVNVRN           NO

Given the entry TCLSQQCTEIEWIKFTPMSR , answer whether its amyloid nucleation score meets or surpasses 3. YES

Could you tell me if the measured amyloid nucleation score of SIFNFKATFGNSSRDVMSDD reaches 3 or more? YES

Kindly determine if amyloid nucleation score recorded for IFNKYLVIFSIFI is above or exactly 3. YES

Record KVYINHGFGNFEVCSRWVFE ; criterion: amyloid nucleation score no lower than 3. Met? NO

###

# Protocol notes: amyloid nucleation score (Sup35N fusion, yeast selection) (log enrichment); library NNK1; higher = more nucleation; inactive = no reads after selection
Outcome measure: amyloid nucleation score
Format: numeric value only, no unit, no commentary.

These solved cases illustrate the format of a correct answer.
>>> print(df.to_string())
              substance  readout_value
0          SFARVWVWSACA         -0.559
1  YQWIFIHLPAVLSVGMEIRY         -0.672
2         CFPMIQMEHSIKS         -0.449
3      GRFFVHEVGMFQTSGQ         -0.187
4          RTINYTAMWCYS          0.721
5  QCDRILSDLYNCSGYNRNTK         -0.522
6  GFLTSSIYRSLAVQLNQSWW          0.078
7              ITLVDVVG          0.082
8            VNRFANVLRR          0.234
9                LGRKFT           2.05

Now let's try a different one.
Kindly note the recorded amyloid nucleation score for MCWPTDAEDAICTSLK , which is 2.12
